Item-by-item account of Emax
Biological target: human δ opioid receptors (hDOR) (Homo sapiens, UniProt P41143)
Construct: expressed in transfected cells; host or cells: HN9.10 neuroblastoma cell line, pCDNA3, neomycin-selected clones
Sequence (P41143 whole entry): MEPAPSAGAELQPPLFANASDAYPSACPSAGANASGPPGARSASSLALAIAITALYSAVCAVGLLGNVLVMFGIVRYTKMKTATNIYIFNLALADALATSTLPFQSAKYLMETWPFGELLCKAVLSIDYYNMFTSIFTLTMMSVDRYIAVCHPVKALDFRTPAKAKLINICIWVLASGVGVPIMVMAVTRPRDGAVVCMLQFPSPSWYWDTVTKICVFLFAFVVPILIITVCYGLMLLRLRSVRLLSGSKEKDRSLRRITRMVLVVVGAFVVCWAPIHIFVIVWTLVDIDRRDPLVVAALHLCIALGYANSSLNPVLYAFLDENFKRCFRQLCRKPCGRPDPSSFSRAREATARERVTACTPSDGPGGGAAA
Experiment: [35S]GTP-γ-S binding assay, hDOR
Type: biochemical
Conditions: Table 32; read-out: GTP hDOR EMax
Peptide text beside a SMILES is read from it.
Value Type: Emax (%)

C[C@@H](NC(=O)[C@H](Cc1ccccc1)NC(=O)CNC(=O)[C@@H](C)NC(=O)[C@@H](N)Cc1ccc(O)cc1)C(=O)N[C@@H](Cc1c[nH]c2ccccc12)C(=O)OCc1cc(C(F)(F)F)cc(C(F)(F)F)c1 [NP40] (HELM PEPTIDE1{Y.[dA].G.F.[dA].W.[FC(F)(F)c1cc(CO[*:1])cc(C(F)(F)F)c1]}$$$$V2.0; N-terminus assumed)    89
CC[C@H](NC(=O)[C@H](Cc1ccccc1)NC(=O)CNC(=O)[C@@H](C)NC(=O)[C@@H](N)Cc1ccc(O)cc1)C(=O)N[C@@H](Cc1c[nH]c2ccccc12)C(=O)OCc1cc(C(F)(F)F)cc(C(F)(F)F)c1 [NP33] (HELM PEPTIDE1{Y.[dA].G.F.[Abu].W.[FC(F)(F)c1cc(CO[*:1])cc(C(F)(F)F)c1]}$$$$V2.0; N-terminus assumed)    43
C[C@@H](NC(=O)[C@@H](N)Cc1ccc(O)cc1)C(=O)NCC(=O)N[C@@H](Cc1ccccc1)C(=O)NCCCC(=O)N[C@@H](Cc1c[nH]c2ccccc12)C(=O)OCc1cc(C(F)(F)F)cc(C(F)(F)F)c1 [NP34] (HELM PEPTIDE1{Y.[dA].G.F.[O=C(CCCN[*:1])[*:2]].W.[FC(F)(F)c1cc(CO[*:1])cc(C(F)(F)F)c1]}$$$$V2.0; N-terminus assumed)    40
C[C@H](NC(=O)[C@H](Cc1ccccc1)NC(=O)CNC(=O)[C@@H](C)NC(=O)[C@@H](N)Cc1ccc(O)cc1)C(=O)N[C@@H](Cc1c[nH]c2ccccc12)C(=O)OCc1cc(C(F)(F)F)cc(C(F)(F)F)c1 [NP31] (HELM PEPTIDE1{Y.[dA].G.F.A.W.[FC(F)(F)c1cc(CO[*:1])cc(C(F)(F)F)c1]}$$$$V2.0; N-terminus assumed)    91
CC(C)C[C@H](NC(=O)[C@H](Cc1ccccc1)NC(=O)CNC(=O)[C@@H](C)NC(=O)[C@@H](N)Cc1ccc(O)cc1)C(=O)N[C@@H](Cc1c[nH]c2ccccc12)C(=O)OCc1cc(C(F)(F)F)cc(C(F)(F)F)c1 [NP37] (HELM PEPTIDE1{Y.[dA].G.F.L.W.[FC(F)(F)c1cc(CO[*:1])cc(C(F)(F)F)c1]}$$$$V2.0; N-terminus assumed)    60
CSCC[C@H](NC(=O)[C@H](Cc1ccccc1)NC(=O)CNC(=O)[C@@H](C)NC(=O)[C@@H](N)Cc1ccc(O)cc1)C(=O)N[C@@H](Cc1c[nH]c2ccccc12)C(=O)OCc1cc(C(F)(F)F)cc(C(F)(F)F)c1 [NP38] (HELM PEPTIDE1{Y.[dA].G.F.M.W.[FC(F)(F)c1cc(CO[*:1])cc(C(F)(F)F)c1]}$$$$V2.0; N-terminus assumed)    36
C[C@@H](NC(=O)[C@@H](N)Cc1ccc(O)cc1)C(=O)NCC(=O)N[C@@H](Cc1ccccc1)C(=O)NC(C)(C)C(=O)N[C@@H](Cc1c[nH]c2ccccc12)C(=O)OCc1cc(C(F)(F)F)cc(C(F)(F)F)c1 [NP41] (HELM PEPTIDE1{Y.[dA].G.F.[Aib].W.[FC(F)(F)c1cc(CO[*:1])cc(C(F)(F)F)c1]}$$$$V2.0; N-terminus assumed)    65

###

Molecular target: rat NK1 (rNK1) receptor (Rattus norvegicus)
Construct: expressed in transfected cells; host or cells: CHO (rNK-1/CHO cell line from Dr. James Krause)
Sequence (P14600 whole entry): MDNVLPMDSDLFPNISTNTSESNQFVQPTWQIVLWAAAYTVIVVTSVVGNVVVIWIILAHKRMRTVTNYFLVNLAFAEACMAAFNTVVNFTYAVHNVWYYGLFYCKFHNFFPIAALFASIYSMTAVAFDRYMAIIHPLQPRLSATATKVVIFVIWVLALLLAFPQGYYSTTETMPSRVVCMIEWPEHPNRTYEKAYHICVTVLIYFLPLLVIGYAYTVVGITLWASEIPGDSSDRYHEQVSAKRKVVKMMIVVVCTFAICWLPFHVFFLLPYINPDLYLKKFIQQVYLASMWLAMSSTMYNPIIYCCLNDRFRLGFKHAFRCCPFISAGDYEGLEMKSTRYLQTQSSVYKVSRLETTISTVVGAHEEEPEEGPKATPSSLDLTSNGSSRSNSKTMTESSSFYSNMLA
Assay: Radioligand competition binding, [3H]substance P, rNK1/CHO membranes
Conditions: LogIC50, rNK1, Substance P radioligand, membranes from transfected CHO cells
pIC50: −log10 of the molar value.
Item-by-item account of pIC50
Value Type: pIC50

CC(C)C[C@H](NC(=O)[C@@H]1CCCN1C(=O)[C@H](Cc1ccccc1)NC(=O)[C@H](Cc1ccccc1)NC(=O)CNC(=O)[C@@H](C)NC(=O)[C@@H](N)Cc1ccc(O)cc1)C(=O)N[C@@H](Cc1c[nH]c2ccccc12)C(=O)OCc1cc(C(F)(F)F)cc(C(F)(F)F)c1    7.72
CCCC[C@H](NC(=O)[C@H](Cc1ccccc1)NC(=O)CNC(=O)[C@@H](C)NC(=O)[C@@H](N)Cc1ccc(O)cc1)C(=O)N1CCC[C@H]1C(=O)N[C@@H](CC(C)C)C(=O)N[C@@H](Cc1c[nH]c2ccccc12)C(=O)OCc1cc(C(F)(F)F)cc(C(F)(F)F)c1    7.87
CSCC[C@H](NC(=O)[C@H](Cc1ccccc1)NC(=O)CNC(=O)[C@@H](C)NC(=O)[C@@H](N)Cc1ccc(O)cc1)C(=O)N1CCC[C@H]1C(=O)N[C@@H](CC(C)C)C(=O)N[C@@H](Cc1c[nH]c2ccccc12)C(=O)OCc1cc(C(F)(F)F)cc(C(F)(F)F)c1    8.22
CC(C)C[C@H](NC(=O)[C@@H]1CCCN1C(=O)[C@@H](Cc1ccccc1)NC(=O)[C@H](Cc1ccccc1)NC(=O)CNC(=O)[C@@H](C)NC(=O)[C@@H](N)Cc1ccc(O)cc1)C(=O)N[C@@H](Cc1c[nH]c2ccccc12)C(=O)OCc1cc(C(F)(F)F)cc(C(F)(F)F)c1    7.22
CCCC[C@@H](C(=O)N1CCC[C@H]1C(=O)N[C@@H](CC(C)C)C(=O)N[C@@H](Cc1c[nH]c2ccccc12)C(=O)OCc1cc(C(F)(F)F)cc(C(F)(F)F)c1)N(C)C(=O)[C@H](Cc1ccccc1)NC(=O)CNC(=O)[C@@H](C)NC(=O)[C@@H](N)Cc1ccc(O)cc1    6.95
CC(C)C[C@H](NC(=O)[C@@H]1CCCN1C(=O)[C@H](CC(C)C)NC(=O)[C@H](Cc1ccccc1)NC(=O)CNC(=O)[C@@H](C)NC(=O)[C@@H](N)Cc1ccc(O)cc1)C(=O)N[C@@H](Cc1c[nH]c2ccccc12)C(=O)OCc1cc(C(F)(F)F)cc(C(F)(F)F)c1    7.70

###

Molecular target: rat μ opioid receptors (rMOR) (Rattus norvegicus, UniProt P33535)
Construct: expressed in transfected cells; host or cells: HN9.10 neuroblastoma cell line, pCDNA3, neomycin-selected clones
Sequence (P33535 whole entry): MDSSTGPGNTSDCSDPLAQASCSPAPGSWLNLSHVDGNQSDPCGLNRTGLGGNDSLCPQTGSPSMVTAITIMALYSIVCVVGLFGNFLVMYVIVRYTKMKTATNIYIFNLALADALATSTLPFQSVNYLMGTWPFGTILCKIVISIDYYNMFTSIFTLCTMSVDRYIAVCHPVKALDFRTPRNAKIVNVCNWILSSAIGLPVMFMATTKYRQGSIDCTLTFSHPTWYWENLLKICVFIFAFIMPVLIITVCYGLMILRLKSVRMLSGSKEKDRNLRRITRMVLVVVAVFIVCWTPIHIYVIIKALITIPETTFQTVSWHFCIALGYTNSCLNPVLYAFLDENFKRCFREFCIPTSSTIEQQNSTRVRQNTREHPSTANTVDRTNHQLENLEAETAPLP
Assay: biochemical
Format: biochemical
Settings: Table 39; read-out: GTP binding rMOR Emax
Item-by-item account of Emax
Value Type: Emax

CCCC[C@H](NC(=O)[C@H](Cc1ccccc1)NC(=O)CNC(=O)[C@@H](C)NC(=O)[C@@H](N)Cc1ccc(O)cc1)C(=O)N1CCC[C@H]1C(=O)NC(COC1OC(CO)C(O)C(O)C1O)C(=O)N[C@@H](Cc1c[nH]c2ccccc12)C(=O)NCc1cc(C(F)(F)F)cc(C(F)(F)F)c1 (some centres unmarked)    42%
CC(C)C[C@H](NC(=O)[C@@H]1CCCN1C(=O)[C@@H]1CSSC[C@@H](NC(=O)[C@@H](N)Cc2ccc(O)cc2)C(=O)NCC(=O)N[C@@H](Cc2ccccc2)C(=O)N1)C(=O)N[C@@H](Cc1c[nH]c2ccccc12)C(=O)NCc1cc(C(F)(F)F)cc(C(F)(F)F)c1    20%

###

Molecular target: human NK1 receptor (hNK1) (Homo sapiens, UniProt P25103)
Construct: expressed in transfected cells
Sequence (P25103 whole entry): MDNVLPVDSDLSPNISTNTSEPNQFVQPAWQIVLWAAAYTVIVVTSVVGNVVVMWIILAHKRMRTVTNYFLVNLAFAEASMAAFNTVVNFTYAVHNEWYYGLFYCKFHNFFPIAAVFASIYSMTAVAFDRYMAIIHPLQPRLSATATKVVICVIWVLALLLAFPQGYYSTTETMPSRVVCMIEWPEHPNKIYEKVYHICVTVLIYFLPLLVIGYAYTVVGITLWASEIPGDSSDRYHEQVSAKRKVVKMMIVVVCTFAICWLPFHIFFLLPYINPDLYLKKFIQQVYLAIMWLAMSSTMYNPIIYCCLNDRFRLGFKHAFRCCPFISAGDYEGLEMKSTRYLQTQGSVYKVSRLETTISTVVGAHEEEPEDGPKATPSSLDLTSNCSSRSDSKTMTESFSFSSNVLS
Assay: Radioligand competition binding, [3H]-Substance P, hNK1
pKi: −log10 of the molar value. Square brackets hold non-standard residues; d marks the D form. Peptide text beside a SMILES is read from it. * marks the point of attachment. NH(3,5-(CF3)2-benzyl) = FC(F)(F)c1cc(CN*)cc(C(F)(F)F)c1; X1 = OC[C@H]1OC(*)[C@H](O)[C@@H](O)[C@@H]1O; Dmt = Cc1cc(O)cc(C)c1C[C@H](N)C(=O)O; Nle = CCCC[C@H](N)C(=O)O
So basically: pKi at 9 or higher? That is Criterion met. Lower than 9? That is Criterion not met.

CCCC[C@@H]1NC(=O)[C@H](Cc2ccccc2)NC(=O)CNC(=O)[C@H](NC(=O)[C@@H](N)Cc2ccc(O)cc2)CSSC[C@H](C(=O)N[C@@H](Cc2c[nH]c3ccccc23)C(=O)NCc2cc(C(F)(F)F)cc(C(F)(F)F)c2)NC(=O)[C@@H]2CCCN2C1=O [TY038, [D-Cys^2, D-Cys^7]TY027] (HELM PEPTIDE1{Y.[dC].G.F.[Nle].P.[dC].W.[FC(F)(F)c1cc(CN[*:1])cc(C(F)(F)F)c1]}$PEPTIDE1,PEPTIDE1,2:R3-7:R3$$$V2.0; N-terminus assumed)    Criterion met
CC(C)C[C@H](NC(=O)[C@@H]1CCCN1C(=O)[C@H](Cc1ccccc1)NC(=O)CNC(=O)[C@@H](C)NC(=O)[C@@H](N)Cc1ccc(O)cc1)C(=O)N[C@@H](Cc1c[nH]c2ccccc12)C(=O)N(C)Cc1ccccc1    Criterion not met
CCCC[C@H](NC(=O)[C@H](Cc1ccccc1)NC(=O)CNC(=O)[C@@H](C)NC(=O)[C@@H](N)Cc1c(C)cc(O)cc1C)C(=O)N1CCC[C@H]1C(=O)N[C@@H](COC1O[C@H](CO)[C@@H](O)[C@H](O)[C@H]1O)C(=O)N[C@@H](Cc1c[nH]c2ccccc12)C(=O)NCc1cc(C(F)(F)F)cc(C(F)(F)F)c1 (stereo partly drawn) [TY056] (H-[Dmt][dA]GF[Nle]PS(X1)W-{NH(3,5-(CF3)2-benzyl)}; N-terminus assumed)    Criterion met
C[C@@H](NC(=O)[C@@H](N)Cc1ccc(O)cc1)C(=O)NCC(=O)N[C@@H](Cc1ccccc1)C(=O)N1CCC[C@H]1C(=O)N[C@@H](Cc1c[nH]c2ccccc12)C(=O)OCc1cc(C(F)(F)F)cc(C(F)(F)F)c1 [NP39] (HELM PEPTIDE1{Y.[dA].G.F.P.W.[FC(F)(F)c1cc(CO[*:1])cc(C(F)(F)F)c1]}$$$$V2.0; N-terminus assumed)    Criterion met
